pKi: recorded values
# target under test: T1, iCAL066 (N-terminal cysteine on peptide)
# T1 chain: MQTSII
# protocol summary: fluorescence polarization competition
pKi is defined as minus the log10 of a concentration measured in mol/L.

NHERF2 PDZ1 (protein) RPRLCRLVRGEQGYGFHLHGEKGRRGQFIRRVEPGSPAEAAALRAGDRLVEVNGVNVEGETHHQVVQRIKAVEGQTRLLVVDQETD: 3.61
NHERF2 PDZ2 (protein) LRPRLCHLRKGPQGYGFNLHSDKSRPGQYIRSVDPGSPAARSGLRAQDRLIEVNGQNVEGLRHAEVVASIKAREDEARLLVVDPETD: 3.78
NHERF1 PDZ2 (protein) RPRLCTMKKGPSGYGFNLHSDKSKPGQFIRSVDPDSPAEASGLRAQDRIVEVNGVCMEGKQHGDVVSAIRAGGDETKLLVVDRETDE: 2.62

Let us examine a further case.
Sample NHERF1 PDZ1 (protein) LPRLCCLEKGPNGYGFHLHGEKGKLGQYIRLVEPGSPAEKAGLLAGDRLVEVNGENVEKETHQQVVSRIRAALNAVRLLVVDPETDE — what was its pKi? 3.61
